Quick list: survival per entry.
# Test system: DeltatarO mutant
# run description: S. aureus survival, RN4220 and DeltatarO strains – OD600, teichoic acid synthesis inhibitors, primary screen (AID 463173)
# test context: S. aureus RN4220 wild type/DeltatarO growth, OD600, 18 h, active compounds read low, screened at 18.75 µg/mL (by protocol)
The whole screen tested about 52,000 compounds, of which about 4,300 (8.3%) were called active. Only a selection was taken, and actives are over-represented in it overall.

CCOC(=O)c1ccc(N2C(=O)c3n[nH]c(-c4ccco4)c3C2c2ccc(C)cc2)cc1 (stereo not given); 69% (inactive)
CC(C)c1ccc(NC(=O)c2ccc3c(c2)CCN3S(=O)(=O)c2ccccc2)cc1; 44% (active)

What does the record list as survival for Cc1ccc2c(c1)c(=O)c(C(=O)c1ccc3c(c1)OCO3)cn2Cc1ccc(Cl)cc1 ?
46% (active)

Another molecule: CC(C)c1ccc(NC(=O)c2ccc(F)c(S(=O)(=O)N3CCc4ccccc43)c2)cc1
83% (inactive)

Another molecule: CCOC(=O)c1ccc(NC(=O)Cc2ccc(-n3c(CC)nc4cccnc43)cc2)cc1
68% (inactive)

Another molecule: Cc1c(C(=O)OC2CCC(C)CC2)[nH]c2c1C(=O)CC(c1ccc(N(C)C)cc1)C2 (stereo not given)
68% (inactive)

Another molecule: CCCCN(CC)C(=O)c1c[nH]c2ccc(S(=O)(=O)N(C)c3ccc(Cl)cc3)cc2c1=O
95% (inactive)

Another molecule: CCOC(=O)c1ccc(N2C(=O)c3n[nH]c(-c4ccco4)c3C2c2cccc(OC)c2)cc1 (stereo not given)
91% (inactive)

Another molecule: Cc1cccc(N(C(=O)c2csnn2)C(C(=O)NC2CCCCC2)c2ccco2)c1 (stereo not given)
87% (inactive)

Another molecule: CC(NC(=O)c1ccc2c(c1)CCN2S(C)(=O)=O)c1ccccc1 (stereo not given)
91% (inactive)

Another molecule: CCOC(=O)c1ccc(N2C(=O)c3n[nH]c(-c4cccs4)c3C2c2cccc(OC)c2)cc1 (stereo not given)
97% (inactive)

Another molecule: CCOC(=O)c1ccc(N2C(=O)c3n[nH]c(-c4ccco4)c3C2c2ccc(C(=O)OC)cc2)cc1 (stereo not given)
89% (inactive)

Another molecule: CN(C(=O)c1nn(C)c2c1COc1ccccc1-2)c1cccc(C(F)(F)F)c1
81% (inactive)

Another molecule: CS(=O)(=O)N1CCc2cc(C(=O)Nc3ccc(S(N)(=O)=O)cc3)ccc21
48% (inactive)

Another molecule: CCOC(=O)c1ccc(N2C(=O)c3n[nH]c(C)c3C2c2cccc(Br)c2)cc1 (stereo not given)
8% (active)

Another molecule: Cc1ccc(Cn2cc(C(=O)c3ccc4c(c3)OCO4)c(=O)c3cc(C)ccc32)cc1
59% (inactive)

Another molecule: CC(NC(=O)c1ccc2c(c1)CCN2S(=O)(=O)c1ccccc1)c1ccccc1 (stereo not given)
37% (active)

Another molecule: O=C(NCCc1ccc(Cl)cc1)c1ccco1
98% (inactive)

Another molecule: NS(=O)(=O)c1ccc(NC(=O)c2ccc3c(c2)CCN3S(=O)(=O)c2ccccc2)cc1
43% (active)

Another molecule: CCOC(=O)c1ccc(N2C(=O)c3n[nH]c(C)c3C2c2ccc(C(C)(C)C)cc2)cc1 (stereo not given)
87% (inactive)
